target: DNA topoisomerase 1 (Homo sapiens) (UniProt P11387); experiment: Inhibition of topoisomerase 1 DNA cleavage activity
Sequence (P11387 whole entry): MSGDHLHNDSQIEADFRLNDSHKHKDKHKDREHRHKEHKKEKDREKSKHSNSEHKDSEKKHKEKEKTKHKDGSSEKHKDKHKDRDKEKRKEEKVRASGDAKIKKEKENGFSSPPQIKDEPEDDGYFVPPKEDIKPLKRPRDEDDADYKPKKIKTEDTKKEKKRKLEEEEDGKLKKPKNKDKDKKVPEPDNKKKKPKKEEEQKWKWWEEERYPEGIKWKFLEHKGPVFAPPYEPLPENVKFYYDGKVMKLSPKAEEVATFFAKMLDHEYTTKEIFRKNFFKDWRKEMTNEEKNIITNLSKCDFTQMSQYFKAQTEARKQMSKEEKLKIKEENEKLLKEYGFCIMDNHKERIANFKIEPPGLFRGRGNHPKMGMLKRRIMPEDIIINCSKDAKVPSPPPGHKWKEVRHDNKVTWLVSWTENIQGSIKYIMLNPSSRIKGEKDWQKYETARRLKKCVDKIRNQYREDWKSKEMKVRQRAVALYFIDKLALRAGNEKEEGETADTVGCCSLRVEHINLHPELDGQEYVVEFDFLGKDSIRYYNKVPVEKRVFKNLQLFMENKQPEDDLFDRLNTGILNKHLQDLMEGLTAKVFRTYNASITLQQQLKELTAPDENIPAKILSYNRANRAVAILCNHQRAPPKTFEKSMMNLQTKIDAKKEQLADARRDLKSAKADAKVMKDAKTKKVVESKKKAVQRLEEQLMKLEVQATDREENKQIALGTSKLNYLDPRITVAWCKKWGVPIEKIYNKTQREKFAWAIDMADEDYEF
ASSAY_READOUT: Inhibition (µM)
Express it in µM; write the number only.

# annotated cases, reported Inhibition shown
Cc1ccc(S(=O)(=O)n2cc3c4c2C(=O)c2c(-c5ccc(O)cc5)n[nH]c2C4=NCC3)cc1 has a reported Inhibition of 10

Cc1ccc(S(=O)(=O)n2cc3c4c2C(=O)c2n[nH]cc2C4=NCC3)cc1 has a reported Inhibition of 100

Cc1ccc(S(=O)(=O)n2cc3c4c2C(=O)c2[nH]nc(-c5ccccc5)c2C4=NCC3)cc1 has a reported Inhibition of 300

O=C1c2[nH]cc3c2C(=NCC3)c2c(-c3ccccc3)n[nH]c21 has a reported Inhibition of 100

Read the next record carefully.
Cc1ccc(S(=O)(=O)n2cc3c4c2C(=O)c2c(-c5ccccc5)n[nH]c2C4=NCC3)cc1 has a reported Inhibition of 100
